# method.notes: gradient 5% acetonitrile 3 min, to 50% in 2 min, to 85% in 15 min, held 3 min, 100 µL/min
# condition.summary: column: Zorbax Extend-C18 2.1 x 50 mm; eluents: water / acetonitrile, 0.1% formic acid
quantity.name: RP-LC retention time (s)

Past entries and their recorded results:
compound	measurement.units	RP-LC retention time
COc1nc2ccccc2nc1N1CCCC(C(=O)Nc2cc(F)cc(F)c2)C1 (stereo not drawn)	s	1170
CCOc1ccc(N2C(=O)C3N=NN(Cc4nc(-c5ccccc5Cl)no4)C3C2=O)cc1 (stereo not drawn)	s	996
COc1ccc(C(=O)CSc2nc(CC(=O)NCc3cccnc3)cs2)cc1	s	589
O=C(CCSc1ccccc1)N1CCN(c2ccc3nnc(C4CC4)n3n2)CC1	s	684
Cc1[nH]c(C(=O)N2CCCC(C(=O)N3CCN(C4CCCCC4)CC3)C2)c(C)c1C(=O)OC(C)C (stereo not drawn)	s	645

[I] COCCN1C(=O)Cc2ccccc2C1C(=O)N1CCCCC1 (stereo not drawn)
[II] CC1Oc2ccccc2N(Cc2nc(-c3cccc(Br)c3)no2)C1=O (stereo not drawn)
In: Higher RP-LC retention time between I and II ? Your answer should be the label of the entry you select.
Out: II
(II: 1200 s, I: 725 s)

---

# method.notes: gradient 5% acetonitrile 3 min, to 50% in 2 min, to 85% in 15 min, held 3 min, 100 µL/min
# condition.summary: column: Zorbax Extend-C18 2.1 x 50 mm; eluents: water / acetonitrile, 0.1% formic acid
quantity.name: RP-LC retention time (s)

compound.structure	RP-LC retention time, s
O=c1n(Cc2ccccc2Cl)nc2ccc(S(=O)(=O)N3CCCCCC3)cn12	1000
COc1ccccc1CNC(=O)c1sc(-c2cn(C(C)C)c3ncccc23)nc1C	1030
Cc1ccc(N2CCN(S(=O)(=O)c3ccc(-c4nnc(C5CCC5)o4)o3)CC2)cc1	1120

---

# method.notes: gradient 5% acetonitrile 3 min, to 50% in 2 min, to 85% in 15 min, held 3 min, 100 µL/min
# condition.summary: column: Zorbax Extend-C18 2.1 x 50 mm; eluents: water / acetonitrile, 0.1% formic acid
quantity.name: RP-LC retention time (s)

Past entries and their recorded results:
molecule	RP-LC retention time, s
Cc1cccc(C(=O)N2CCC3(C2)C(=O)N(C)c2ccccc23)c1 (stereo not given)	794
CCOc1cccc(CNc2nc3ccncc3n(CC)c2=O)c1	665
Clc1ccc(C(Cn2ccnc2)OCc2csc3c(Cl)cccc23)c(Cl)c1 (stereo not given)	974
c1cncc(-c2nc(-c3ccc(-n4ccnc4)nc3)no2)c1	597
COCCOC1CCOC2(CCN(C(=O)c3cccs3)CC2)C1 (stereo not given)	691

[a] CCOC(=O)N1CCN(C(=O)C2CCCN(c3ccc(-c4ccc(C)c(C)c4)nn3)C2)CC1 (stereo not given)
[b] COc1ccc(-c2noc(CN3C(=O)COc4cc(C)ccc43)n2)cc1
In: // task: argmin of RP-LC retention time over [ a , b ] Your answer should be the label of the entry you select.
Out: a

---

# method.notes: gradient 5% acetonitrile 3 min, to 50% in 2 min, to 85% in 15 min, held 3 min, 100 µL/min
# condition.summary: column: Zorbax Extend-C18 2.1 x 50 mm; eluents: water / acetonitrile, 0.1% formic acid
quantity.name: RP-LC retention time (s)

compound.structure	numeric.readout
CCc1nc2ccc(-c3noc(-c4ccsc4)n3)cc2n1CC	698
O=C1CCCc2cc(S(=O)(=O)N3CCC(C(=O)N4CCCCCC4)CC3)ccc2N1	716
CC(=O)Nc1ccc(C(=O)NCCNC(=O)CC(c2ccccc2)c2ccccc2)cc1	697

---

# method.notes: gradient 5% acetonitrile 3 min, to 50% in 2 min, to 85% in 15 min, held 3 min, 100 µL/min
# condition.summary: column: Zorbax Extend-C18 2.1 x 50 mm; eluents: water / acetonitrile, 0.1% formic acid
quantity.name: RP-LC retention time (s)

Past entries and their recorded results:
molecule	measurement.units	RP-LC retention time
CC(C)C(=O)Nc1ccc(-n2cnc(C(=O)N3CCN(Cc4ccccc4)CC3)c2)nc1	s	608
CCOC(=O)c1cccc(NC(=O)NC2COc3ccc(OC)cc3C2)c1 (stereo not drawn)	s	906
CNC(=O)Cn1nc(C2CCN(C(=O)c3nccc4ccccc34)CC2)c2c1CCOC2	s	609
Cc1ccc(Cn2cc(-c3ccncc3)cc2C(=O)N2CCC(N3CCCCC3)CC2)cc1	s	564
CCCCN(CCCNC(=O)C1CCN(S(=O)(=O)CCC)CC1)Cc1ccccc1	s	672
CCS(=O)(=O)c1nc2ccc(NS(=O)(=O)c3ccc(OC)c(Cl)c3)cc2s1	s	907
CS(=O)(=O)c1ccc(-c2cnc(N)c(C(=O)Nc3ccccc3)n2)cc1	s	937
Cc1nnc2cc(N3CCN(C(=O)Nc4cccc(F)c4)CC3)cnn12	s	624

[I] CC1CCC(NC(=O)c2sc3ncccc3c2-n2cccc2)CC1 (stereo not drawn)
[II] O=C(NCc1ccc(Br)cc1)c1cn2c(n1)CCCC2
In: // task: argmin of RP-LC retention time over [ I , II ] Your answer should be the label of the entry you select.
Out: II
(II: 633 s, I: 1200 s)

---

# method.notes: gradient 5% acetonitrile 3 min, to 50% in 2 min, to 85% in 15 min, held 3 min, 100 µL/min
# condition.summary: column: Zorbax Extend-C18 2.1 x 50 mm; eluents: water / acetonitrile, 0.1% formic acid
quantity.name: RP-LC retention time (s)

Past entries and their recorded results:
compound	quantity.name	measurement.units	numeric.readout
COc1cccc(-c2nc(NCc3cccnc3)ncc2C(=O)O)c1	RP-LC retention time	s	576
COc1ccccc1N1CCN(CCN2C(=O)c3ccccc3C(C)(C)C2=O)CC1	RP-LC retention time	s	787
Nc1ncnc2c1nnn2C1OC(CO)C(O)C1O (stereo unspecified)	RP-LC retention time	s	513
CS(=O)(=O)N1CCC(CC(=O)NCCC2=CCCCC2)C1 (stereo unspecified)	RP-LC retention time	s	743

[1] CN1C(=O)CCc2cc(NC(=O)c3n[nH]c4ccccc34)ccc21
[2] Cc1ccc(-c2noc(Cn3ncn4nc(-c5cccs5)cc4c3=O)n2)cc1
In: // task: argmin of RP-LC retention time over [ 1 , 2 ] Your answer should be the label of the entry you select.
Out: 1

---

# method.notes: gradient 5% acetonitrile 3 min, to 50% in 2 min, to 85% in 15 min, held 3 min, 100 µL/min
# condition.summary: column: Zorbax Extend-C18 2.1 x 50 mm; eluents: water / acetonitrile, 0.1% formic acid
quantity.name: RP-LC retention time (s)

compound.structure	quantity.name	measurement.units	numeric.readout
COCCCNC(=O)CCc1c(C)n(C)c2nc(-c3ccccc3)nn2c1=O	RP-LC retention time	s	653
Cc1cc(N2CCN(C)CC2)nc(N2CCN(C(=O)c3ccc(Br)cc3)CC2)n1	RP-LC retention time	s	557
OCCNCc1ccc(-c2ccc(Cl)cc2Cl)o1	RP-LC retention time	s	642
Cc1oc2ccn(Cc3ccc(F)cc3)c(=O)c2c1C(=O)NCC1CC1	RP-LC retention time	s	988
COc1ccccc1-c1noc(-c2nnn(Cc3nc(-c4ccccc4OC)oc3C)c2C)n1	RP-LC retention time	s	1060
COc1ccc2[nH]cc(CCNC(=O)Cn3nc4c(cc3=O)CCCCC4)c2c1	RP-LC retention time	s	756

---

# method.notes: gradient 5% acetonitrile 3 min, to 50% in 2 min, to 85% in 15 min, held 3 min, 100 µL/min
# condition.summary: column: Zorbax Extend-C18 2.1 x 50 mm; eluents: water / acetonitrile, 0.1% formic acid
quantity.name: RP-LC retention time (s)

compound.structure	numeric.readout
CCOC(=O)c1c(C)n(-c2ccc(OC)cc2)c2ccc(OCC(N)=O)cc12	909
CCCNC(=O)N1CCCN(C2=NS(=O)(=O)C(c3ccc(Cl)cc3)=C2C)CC1	794
O=C(Cn1cnc2nc3c(cc2c1=O)CCCC3)Nc1ccc(Cl)cc1F	778

---

# method.notes: gradient 5% acetonitrile 3 min, to 50% in 2 min, to 85% in 15 min, held 3 min, 100 µL/min
# condition.summary: column: Zorbax Extend-C18 2.1 x 50 mm; eluents: water / acetonitrile, 0.1% formic acid
quantity.name: RP-LC retention time (s)

Past entries and their recorded results:
molecule	RP-LC retention time [s]
Cc1nn(-c2cc(N(C)C)ncn2)c(C)c1CCC(=O)NCc1ccccc1	716
CC(C)NC(=O)c1ccc(OCC2CCCN2C(=O)c2cccs2)cc1 (configuration not stated)	818
Cc1ccc(NC(=O)Cn2c(C(C)C)nc3c(c2=O)CN(Cc2ccccc2)CC3)cc1C	738
COCCn1c(SCc2nc(-c3ccc(C)cc3)no2)nc2cc3c(cc2c1=O)OCO3	1100
CC(C)Oc1ccccc1CN1CC(c2nc(-c3ccncc3)nn2C)C1	590
Cc1cc(C)nc(N2CCN(c3nc(C)cc(C)c3C#N)CC2)n1	990

[A] COc1cccc(-c2nc3ccc(Cl)cn3c2Nc2ccc(Cl)cc2)c1
[B] Cc1cc(N2CCN(C)CC2)nc2ccc(NC(=O)Nc3cccc(Cl)c3)cc12
In: Higher RP-LC retention time between A and B ? Your answer should be the label of the entry you select.
Out: A
(A: 873 s, B: 590 s)

[a] CCN1CCN(CCCNc2ccc(-c3nc(-c4cccc(F)c4)no3)cn2)CC1
[b] CCSc1nc2ccc(NS(=O)(=O)c3ccc(F)cc3F)cc2s1
In: Higher RP-LC retention time between a and b ? Your answer should be the label of the entry you select.
Out: b

[1] COc1cccc(NC(=O)Cn2nc3c(Oc4ccccc4Cl)nccn3c2=O)c1
[2] CC(C)CN1CCN(Cc2nc(-c3ccc(N4CCCCC4)nc3)no2)CC1
In: Higher RP-LC retention time between 1 and 2 ? Your answer should be the label of the entry you select.
Out: 1
(1: 865 s, 2: 596 s)

[P] O=C(NCc1ccc(F)cc1)N1CCN(Cc2nc3cc(-c4ccccc4)ccc3o2)CC1
[Q] COCCOC1CN(C2CCN(Cc3cccc(C)c3)CC2)C12CCCCC2 (configuration not stated)
In: Higher RP-LC retention time between P and Q ? Your answer should be the label of the entry you select.
Out: P
(P: 850 s, Q: 573 s)
